Reported values of inhibition at 1.235 µM for individual entries
assay system: purified human HDAC6 (Homo sapiens)
Construct: purchased BPS Bioscience 5006
Sequence (Q9UBN7 whole entry): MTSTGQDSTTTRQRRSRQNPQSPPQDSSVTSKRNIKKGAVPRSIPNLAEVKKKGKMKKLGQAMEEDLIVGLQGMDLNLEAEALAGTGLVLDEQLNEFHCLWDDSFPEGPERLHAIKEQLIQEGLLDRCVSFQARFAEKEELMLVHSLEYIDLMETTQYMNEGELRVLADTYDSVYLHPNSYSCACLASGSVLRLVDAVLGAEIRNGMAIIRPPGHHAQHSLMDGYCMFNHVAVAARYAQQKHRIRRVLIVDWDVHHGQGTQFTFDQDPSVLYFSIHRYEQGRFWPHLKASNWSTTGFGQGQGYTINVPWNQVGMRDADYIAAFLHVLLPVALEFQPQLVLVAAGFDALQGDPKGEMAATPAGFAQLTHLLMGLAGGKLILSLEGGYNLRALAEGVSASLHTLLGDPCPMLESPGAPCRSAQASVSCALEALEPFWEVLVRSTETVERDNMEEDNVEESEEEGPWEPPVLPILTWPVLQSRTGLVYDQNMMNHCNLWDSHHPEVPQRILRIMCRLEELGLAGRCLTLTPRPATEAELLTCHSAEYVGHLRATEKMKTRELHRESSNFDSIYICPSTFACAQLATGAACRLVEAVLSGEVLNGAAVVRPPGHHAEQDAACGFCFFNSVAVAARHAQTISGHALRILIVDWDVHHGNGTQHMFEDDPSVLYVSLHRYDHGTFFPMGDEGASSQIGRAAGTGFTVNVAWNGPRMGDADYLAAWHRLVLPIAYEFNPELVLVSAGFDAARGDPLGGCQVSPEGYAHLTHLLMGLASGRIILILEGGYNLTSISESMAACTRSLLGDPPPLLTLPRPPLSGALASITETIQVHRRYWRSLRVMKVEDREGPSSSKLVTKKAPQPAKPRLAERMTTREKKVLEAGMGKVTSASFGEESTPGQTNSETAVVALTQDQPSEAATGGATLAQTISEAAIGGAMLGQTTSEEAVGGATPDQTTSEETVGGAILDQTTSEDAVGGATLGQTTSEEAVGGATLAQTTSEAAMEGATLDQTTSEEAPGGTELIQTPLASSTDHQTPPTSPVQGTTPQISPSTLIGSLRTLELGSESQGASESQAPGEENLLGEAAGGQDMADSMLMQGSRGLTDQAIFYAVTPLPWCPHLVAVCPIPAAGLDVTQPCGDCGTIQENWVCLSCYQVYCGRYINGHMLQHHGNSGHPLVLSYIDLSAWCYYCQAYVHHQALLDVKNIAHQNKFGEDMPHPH
method description: HDAC6 Enzyme Assay
Format: biochemical
conditions used: test compound at 1.235 μM; substrate Ac-Arg-Gly-Lys(Ac)-AMC, 1 hour at 30° C.; read-out: Percent Inhibition at 1.235 μM
observation type: inhibition at 1.235 µM (%)

molecule="CC(=O)N1CCc2cc(C(=O)NO)cnc2C1 [Compound I-21]" assay_system="purified human HDAC6 (Homo sapiens)" scale_unit=% experimental_result=73.9
molecule="O=C(NO)c1cnc2c(c1)CCN(C(=O)C13CC4CC(CC(C4)C1)C3)C2 [Compound I-15]" assay_system="purified human HDAC6 (Homo sapiens)" scale_unit=% experimental_result=95.6
molecule="O=C(NO)c1cnc2c(c1)CCN(C(=O)C13CC4CC(CC(O)(C4)C1)C3)C2 [Compound I-26]" assay_system="purified human HDAC6 (Homo sapiens)" scale_unit=% experimental_result=94
